meta.source: patent US20260347373A1

Molecular target: KRAS G12D (Homo sapiens, UniProt P01116, G12D)
Sequence (P01116 1-188 isoform P01116-2 G12D): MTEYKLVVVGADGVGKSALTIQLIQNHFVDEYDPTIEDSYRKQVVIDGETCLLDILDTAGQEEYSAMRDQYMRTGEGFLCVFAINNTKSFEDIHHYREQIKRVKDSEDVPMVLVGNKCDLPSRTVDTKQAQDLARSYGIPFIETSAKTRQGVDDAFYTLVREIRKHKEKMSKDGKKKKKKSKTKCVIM
Assay: KRAS G12D Probe Displacement Assay (TR-FRET, GDP-loaded)
Type: binding
Conditions: KRAS G12D, read-out: KRAS^G12D Probe Displacement Assay IC50
measured_attribute: IC50

Nc1cc(Cl)c(C(F)(F)F)c(-c2nc3c4c(nc(OCC56C[C@@H](F)CN5C[C@H](F)C6)nc4c2F)N2C[C@H]4CC[C@H](N4)[C@H]2CCO3)c1 ... < 0.3 nM
Cc1cc(N)cc(-c2nc3c4c(nc(OCC5(C)CC(F)CN(C6CCOCC6)C5)nc4c2F)N2C[C@H]4CC[C@H](N4)[C@H]2CCO3)c1C(F)(F)F (single isomer, unassigned) [Example 235] ... 0.3 to 3 nM
Cc1cc(N)cc(-c2nc3c4c(nc(OCC5(CN6C[C@@H]7[C@@H](F)[C@@H]7C6)CC5)nc4c2F)N2C[C@H]4CC[C@H](N4)[C@H]2CCO3)c1C(F)(F)F ... < 0.3 nM
Cc1cc(N)cc(-c2nc3c4c(nc(O[C@@H](C)[C@@H]5CCCN5C5CCOCC5)nc4c2F)N2C[C@H]4CC[C@H](N4)[C@H]2CCO3)c1C(F)(F)F ... < 0.3 nM
Cc1cc(N)cc(-c2nc3c4c(nc(OCC5(CN(C)C)CC5(F)F)nc4c2F)N2C[C@H]4CC[C@H](N4)[C@H]2CCO3)c1C(F)(F)F (single isomer, unassigned) [Example 17] ... < 0.3 nM

###

Target: WT KRAS (Homo sapiens)
Sequence (P01116 1-188 isoform P01116-2): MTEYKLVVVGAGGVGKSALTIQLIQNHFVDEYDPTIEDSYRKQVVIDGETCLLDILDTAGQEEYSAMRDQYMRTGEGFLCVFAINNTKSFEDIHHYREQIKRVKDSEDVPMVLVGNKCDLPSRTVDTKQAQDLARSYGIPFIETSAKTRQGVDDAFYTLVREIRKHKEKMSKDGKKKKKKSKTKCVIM
Assay: KRAS WT Probe Displacement Assay (TR-FRET, GDP-loaded)
Type: binding
Conditions: KRAS WT, read-out: KRAS^WT Probe Displacement Assay IC50
pIC50: −log10 of the molar value.
measured_attribute: pIC50

Cc1cc(N)cc(-c2nc3c4c(nc(O[C@@H](C)[C@@H]5[C@H]6C[C@H]6CN5C)nc4c2F)N2C[C@H]4CC[C@H](N4)[C@H]2CCO3)c1C(F)(F)F [Example 223] ... 6.00 to 8.52
Cc1cc(N)cc(-c2nc3c4c(nc(OCC5(C)CN(C)CCN5C)nc4c2F)N2C[C@H]4CC[C@H](N4)[C@H]2CCO3)c1C(F)(F)F (single isomer, unassigned) [Example 4] ... 6.00 to 8.52
Cc1cc(N)cc(-c2nc3c4c(nc(OCC5(CN6C[C@H]7CC[C@@H](C6)O7)CC5)nc4c2F)N2C[C@H]4CC[C@H](N4)[C@H]2CCO3)c1C(F)(F)F [Example 106] ... 6.00 to 8.52
Cc1cc(N)cc(-c2nc3c4c(nc(OCC5(CN6CC[C@H](F)C6)CC5)nc4c2F)N2C[C@H]4CC[C@H](N4)[C@H]2CCO3)c1C(F)(F)F [Example 157] ... 6.00 to 8.52
Cc1nc(N)cc(-c2nc3c4c(nc(OC[C@]5(CN(C)C)CC5(F)F)nc4c2F)N2C[C@H]4CC[C@H](N4)[C@H]2CCO3)c1C(F)(F)F [Example 48] ... 6.00 to 8.52
Cc1cc(N)cc(-c2nc3c4c(nc(OCC5(CN6CC7(CCOCC7)C6)CC5)nc4c2F)N2C[C@H]4CC[C@H](N4)[C@H]2CCO3)c1C(F)(F)F [Example 85] ... 8.52 to 9.52
Cc1cc(N)cc(-c2nc3c4c(nc(OCC5(CN6CC7CC7C6)CC5)nc4c2F)N2C[C@H]4CC[C@H](N4)[C@H]2CCO3)c1C(F)(F)F (stereo partly shown) [Example 71] ... 6.00 to 8.52
Cc1cc(N)cc(-c2nc3c4c(nc(OCC5(CN6C[C@@H](C)O[C@@H](C)C6)CC5)nc4c2F)N2C[C@H]4CC[C@H](N4)[C@H]2CCO3)c1C(F)(F)F [Example 64] ... 8.52 to 9.52
Cc1cc(N)cc(-c2nc3c4c(nc(OCC5(CN6CCC7(CC6)CC(F)(F)C7)CC5)nc4c2F)N2C[C@H]4CC[C@H](N4)[C@H]2CCO3)c1C(F)(F)F [Example 173] ... 6.00 to 8.52
COC1CN(C)CC(C)(COc2nc3c4c(nc(-c5cc(N)cc(C)c5C(F)(F)F)c(F)c4n2)OCC[C@@H]2[C@@H]4CC[C@H](CN32)N4)C1 (stereo partly shown) [Example 126] ... 6.00 to 8.52
[2H]C([2H])([2H])N1CCC(C(F)F)C(C)(C([2H])([2H])Oc2nc3c4c(nc(-c5cc(N)cc(Cl)c5C(F)(F)F)c(F)c4n2)OCC[C@@H]2[C@@H]4CC[C@H](CN32)N4)C1 (single isomer, unassigned) [Example 247] ... 8.52 to 9.52
Cc1cc(N)cc(-c2nc3c4c(nc(OCC5(CN6CCC7(CC6)CC7(F)F)CC5)nc4c2F)N2C[C@H]4CC[C@H](N4)[C@H]2CCO3)c1C(F)(F)F [Example 158] ... 8.52 to 9.52
Cc1cc(N)cc(-c2nc3c4c(nc(O[C@H](C)[C@@H]5CCCN5C)nc4c2F)N2C[C@H]4CC[C@H](N4)[C@H]2CCO3)c1C(F)(F)F [Example 38] ... 6.00 to 8.52
C[C@H](Oc1nc2c3c(nc(-c4cc(N)cc(Cl)c4C(F)(F)F)c(F)c3n1)OCC[C@@H]1[C@@H]3CC[C@H](CN21)N3)[C@@H]1CCCN1C [Example 140] ... 6.00 to 8.52
Cc1cc(N)cc(-c2nc3c4c(nc(OCC5(CN6CCC(F)CC6)CC5)nc4c2F)N2C[C@H]4CC[C@H](N4)[C@H]2CCO3)c1C(F)(F)F [Example 66] ... 6.00 to 8.52
Cc1cc(N)cc(-c2nc3c4c(nc(OCC56C[C@@H](F)CN5C[C@H](F)C6)nc4c2F)N2C[C@H]4CC[C@H](N4)[C@H]2CCO3)c1C(F)(F)F [Example 36] ... 6.00 to 8.52
Cc1cc(N)cc(-c2nc3c4c(nc(OCC5(C(C)N(C)C)CC5)nc4c2F)N2C[C@H]4CC[C@H](N4)[C@H]2CCO3)c1C(F)(F)F (stereo partly shown) [Example 135] ... 6.00 to 8.52
Cc1cc(N)cc(-c2nc3c4c(nc(N5CC(C)(N(C)C)C5)nc4c2F)N2C[C@H]4CC[C@H](N4)[C@H]2CCO3)c1C(F)(F)F [Example 30] ... 6.00 to 8.52
C=C1CN2C[C@H]3C[C@H]3[C@]2(COc2nc3c4c(nc(-c5cc(N)cc(C)c5C(F)(F)F)c(F)c4n2)OCC[C@@H]2[C@@H]4CC[C@H](CN32)N4)C1 [Example 212] ... 6.00 to 8.52
Cc1cc(N)cc(-c2nc3c4c(nc(OCC5(CN6C[C@@H]7C[C@@H]7[C@H]6CO)CC5)nc4c2F)N2C[C@H]4CC[C@H](N4)[C@H]2CCO3)c1C(F)(F)F [Example 97] ... 6.00 to 8.52
Cc1cc(N)cc(-c2nc3c4c(nc(OCC5(CN(C)C)CC5)nc4c2F)N2C[C@H]4CC[C@H](N4)[C@H]2CCO3)c1C(F)(F)F [Example 56] ... 6.00 to 8.52
Cc1cc(N)cc(-c2nc3c4c(nc(OCC5(CN6C[C@@H]7C[C@@H]7[C@H]6C)CC5)nc4c2F)N2C[C@H]4CC[C@H](N4)[C@H]2CCO3)c1C(F)(F)F [Example 171] ... 6.00 to 8.52

###

Target: WT KRAS (Homo sapiens)
Test: KRAS WT Probe Displacement Assay (TR-FRET, GDP-loaded)
Format: binding
Conditions: KRAS WT, read-out: KRAS^WT Probe Displacement Assay IC50
measured_attribute: IC50

[2H]C([2H])([2H])N1CCC(C(F)F)C(C)(C([2H])([2H])Oc2nc3c4c(nc(-c5cc(N)cc(C)c5C(F)(F)F)c(F)c4n2)OCC[C@@H]2[C@@H]4CC[C@H](CN32)N4)C1 (single isomer, unassigned) [Example 241] ... 0.3 to 3 nM
CO[C@H]1CN2C[C@H](F)C[C@]2(COc2nc3c4c(nc(-c5cc(N)cc(C)c5C(F)(F)F)c(F)c4n2)OCC[C@@H]2[C@@H]4CC[C@H](CN32)N4)C1 [Example 214] ... 3 to 1000 nM
Cc1cc(N)cc(-c2nc3c4c(nc(OC[C@@]56CCCN5CC(F)(F)C6)nc4c2F)N2C[C@H]4CC[C@H](N4)[C@H]2CCO3)c1C(F)(F)F [Example 33] ... 3 to 1000 nM
[2H]C([2H])([2H])c1cc(N)cc(-c2nc3c4c(nc(OC[C@@]5(CN(C)C)CC5(F)F)nc4c2F)N2C[C@H]4CC[C@H](N4)[C@H]2CCO3)c1C(F)(F)F [Example 46] ... 3 to 1000 nM
Cc1cc(N)cc(-c2nc3c4c(nc(OCC5(CN6CCCC(C)(O)C6)CC5)nc4c2F)N2C[C@H]4CC[C@H](N4)[C@H]2CCO3)c1C(F)(F)F (mixture of isomers) [Example 116] ... 3 to 1000 nM
Cc1cc(N)cc(-c2nc3c4c(nc(OCC5(CN6C[C@H]7C[C@H]7[C@H]6C)CC5)nc4c2F)N2C[C@H]4CC[C@H](N4)[C@H]2CCO3)c1C(F)(F)F [Example 172] ... 3 to 1000 nM
Cc1cc(N)cc(-c2nc3c4c(nc(OCC5(CN6CCn7cncc7C6)CC5)nc4c2F)N2C[C@H]4CC[C@H](N4)[C@H]2CCO3)c1C(F)(F)F [Example 108] ... 3 to 1000 nM
Cc1cc(N)cc(-c2nc3c4c(nc(OCC5(CN6C[C@@H](C)O[C@@H](C)C6)CC5(F)F)nc4c2F)N2C[C@H]4CC[C@H](N4)[C@H]2CCO3)c1C(F)(F)F (single isomer, unassigned) [Example 22] ... 3 to 1000 nM
Cc1cc(N)cc(-c2nc3c4c(nc(O[C@@H](C)[C@@H]5CCCN5CCF)nc4c2F)N2C[C@H]4CC[C@H](N4)[C@H]2CCO3)c1C(F)(F)F [Example 250] ... 3 to 1000 nM
C=CCN1CCC[C@H]1[C@H](C)Oc1nc2c3c(nc(-c4cc(N)cc(C)c4C(F)(F)F)c(F)c3n1)OCC[C@@H]1[C@@H]3CC[C@H](CN21)N3 [Example 231] ... 3 to 1000 nM
Cc1cc(N)cc(-c2nc3c4c(nc(OCC5(CN6CCC7(CC6)COC7)CC5)nc4c2F)N2C[C@H]4CC[C@H](N4)[C@H]2CCO3)c1C(F)(F)F [Example 102] ... 0.3 to 3 nM
CO[C@@H]1CCN(CC2(COc3nc4c5c(nc(-c6cc(N)cc(C)c6C(F)(F)F)c(F)c5n3)OCC[C@@H]3[C@@H]5CC[C@H](CN43)N5)CC2)C[C@@H]1F [Example 184] ... 3 to 1000 nM
Cc1cc(N)cc(-c2nc3c4c(nc(OCC5(CN6C[C@H]7C[C@H]7[C@H]6CO)CC5)nc4c2F)N2C[C@H]4CC[C@H](N4)[C@H]2CCO3)c1C(F)(F)F [Example 98] ... 3 to 1000 nM
Cc1cc(N)cc(-c2nc3c4c(nc(OCC5(C(C)N(C)C)CC5(F)F)nc4c2F)N2C[C@H]4CC[C@H](N4)[C@H]2CCO3)c1C(F)(F)F (single isomer, unassigned) [Example 59] ... 3 to 1000 nM
Cc1cc(N)cc(-c2nc3c4c(nc(OCC5(CN6CCOC7(CCC7)C6)CC5)nc4c2F)N2C[C@H]4CC[C@H](N4)[C@H]2CCO3)c1C(F)(F)F [Example 121] ... 3 to 1000 nM
Cc1cc(N)cc(-c2nc3c4c(nc(O[C@@H](C)[C@@H]5CC6(CN5C)CC6(F)F)nc4c2F)N2C[C@H]4CC[C@H](N4)[C@H]2CCO3)c1C(F)(F)F (single isomer, unassigned) [Example 224] ... 3 to 1000 nM
CN1CCN(C)C(C)(COc2nc3c4c(nc(-c5cc(N)cc(Cl)c5C(F)(F)F)c(F)c4n2)OCC[C@@H]2[C@@H]4CC[C@H](CN32)N4)C1 (single isomer, unassigned) [Example 3] ... 3 to 1000 nM
CO[C@@H]1CN2C[C@H](F)C[C@]2(COc2nc3c4c(nc(-c5cc(N)cc(Cl)c5C(F)(F)F)c(F)c4n2)OCC[C@@H]2[C@@H]4CC[C@H](CN32)N4)C1 [Example 217] ... 3 to 1000 nM
Cc1cc(N)cc(-c2nc3c4c(nc(OCC5(CN6CC=C(F)CC6)CC5)nc4c2F)N2C[C@H]4CC[C@H](N4)[C@H]2CCO3)c1C(F)(F)F [Example 178] ... 3 to 1000 nM
C[C@]1(COc2nc3c4c(nc(-c5cc(N)cc(Cl)c5C(F)(F)F)c(F)c4n2)OCC[C@@H]2[C@@H]4CC[C@H](CN32)N4)CCCN(C2CCOCC2)C1 [Example 196] ... 0.3 to 3 nM
